test system: Streptococcus pyogenes; test: Minimum inhibitory concentration against aerobic organism Streptococcus pyogenes strain 3124; assay type: functional; settings: Streptococcus pyogenes; read-out: MIC
Quick reference: MIC of the listed items.
Property name: MIC (µg/mL)

| Compound | Assay system | Property name | Relational operator | Readout value |
| --- | --- | --- | --- | --- |
| Cn1nnnc1SCC1=C(C(=O)[O-])N2C(=O)[C@@H](Nc3cc[n+](Cc4ccco4)cc3)[C@H]2SC1 | Streptococcus pyogenes | MIC | = | 0.03 |
| CC[n+]1ccc(N[C@@H]2C(=O)N3C(C(=O)[O-])=C(CSc4nnnn4C)CS[C@H]23)cc1 | Streptococcus pyogenes | MIC | = | 1 |
| COC(=O)c1c[n+](C)ccc1N[C@@H]1C(=O)N2C(C(=O)[O-])=C(CSc3nnnn3C)CS[C@H]12 | Streptococcus pyogenes | MIC | = | 32 |
| Cn1nnnc1SCC1=C(C(=O)[O-])N2C(=O)[C@@H](Nc3cc[n+](Cc4ccc(C#N)cc4)cc3)[C@H]2SC1 | Streptococcus pyogenes | MIC | = | 0.125 |
| CC1(C)SC2C(Nc3cc[n+](Cc4ccccc4)cc3)C(=O)N2[C@H]1C(=O)[O-] (stereo partly drawn) | Streptococcus pyogenes | MIC | = | 0.25 |
| COc1ccc(C[n+]2ccc(N[C@@H]3C(=O)N4C(C(=O)[O-])=C(CSc5nnnn5C)CS[C@H]34)cc2)cc1 | Streptococcus pyogenes | MIC | < | 0.06 |
| COc1ccc(C[n+]2ccc(N[C@@H]3C(=O)N4C(C(=O)[O-])=C(CSc5nnnn5C)CS[C@H]34)cc2)cc1OC | Streptococcus pyogenes | MIC | = | 0.125 |
| C[n+]1ccc(NC2C(=O)N3C2SC(C)(C)[C@@H]3C(=O)[O-])cc1 (stereo partly drawn) | Streptococcus pyogenes | MIC | = | 1.56 |
